Experimental protocol: chemical genetic growth profiling, strain panel (AID 1159580);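 note: tested at 20 µM; growth read once vehicle control cultures reached saturation at 30 °C; 1 = growth at the plate median or of vehicle wells; lower values mean less growth of the strain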
Test conditions: S. cerevisiae deletion strains, growth OD, locus YER167W, strain BCK2, hits give low values
The campaign covered roughly 5,500 compounds. About 2,000 (36%) were called active. Inconclusive results (about 18%) are left out. The list shows a part of the results.
Metric name: normalized growth
Give bare numbers.

Worked examples, 2 compounds total:
{"columns": ["Compound", "normalized growth"],
 "data": [
  ["C/C=C(/C)C(=O)O[C@@H]1Cc2c(ccc3ccc(=O)oc23)OC1(C)C", 0.978],
  ["CCOC(=O)C1=C(O)C(=O)N(Cc2ccccc2)C1", 1.03]
]}

# map each compound to its normalized growth
1. CC1(C)S[C@@H]2[C@H](NC(=O)[C@@H](N)c3ccc(O)cc3)C(=O)N2[C@H]1C(=O)O
2. CC1(C)C(=O)CC[C@@]2(C)C1C[C@@H](O)[C@@]1(C)C3=CC(=O)O[C@@H](c4ccoc4)[C@]3(C)CCC21 (stereo not given in full)
3. CC1(C)Oc2ccc3ccc(=O)oc3c2CC1O (stereo not given)

[1.01, 0.989, 0.978]

###

Experimental protocol: chemical genetic growth profiling, strain panel (AID 1159580);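 note: tested at 20 µM; growth read once vehicle control cultures reached saturation at 30 °C; 1 = growth at the plate median or of vehicle wells; lower values mean less growth of the strain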
Test conditions: S. cerevisiae deletion strains, growth OD, locus YIL073C, strain SPO22, hits give low values
Hit rate of the full screen: of about 5,500 compounds, about 2,000 (36%) were called active. About 18% were inconclusive and are not listed. The list shows a part of the results.
Metric name: normalized growth
Answers are plain numbers.

See these solved cases before continuing.
{"columns": ["Compound", "normalized growth"],
 "data": [
  ["CCCCC(=O)O[C@]1(C(=O)CO)[C@@H](C)CC2C3CCC4=CC(=O)C=C[C@]4(C)[C@@]3(F)C(O)C[C@@]21C (stereo partly drawn)", 1.01],
  ["O=C(O)c1cc(O)ccc1O", 0.976],
  ["CSCCC(N)C(=O)NC(CC(C)C)C(=O)NC(Cc1ccccc1)C(=O)O (stereo not drawn)", 1]
]}

Fill in normalized growth for each of the 5 compounds listed.
1. CC[C@@]1(O)C(=O)OCc2c1cc1n(c2=O)Cc2cc3cc(O)ccc3nc2-1
2. COC1=CC(=O)C=C(OC)C1=O
3. COc1ccc(-c2cc(=O)c3c(O)cc(O)cc3o2)cc1O
4. CC(=O)O[C@@H]1CC2C(C)(CC[C@H](O)C2(C)C)C2CC[C@]3(C)C(=CC(=O)O[C@H]3c3ccoc3)C21C (stereo partly drawn)
5. CC1Cc2ccccc2N1NC(=O)c1ccc(Cl)c(S(N)(=O)=O)c1 (stereo not drawn)

1. 0.985
2. 0.975
3. 1.02
4. 1.02
5. 0.991

###

Exercise: for every item that follows, state its recorded normalized growth.
Experimental protocol: chemical genetic growth profiling, strain panel (AID 1159580);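 note: tested at 20 µM; growth read once vehicle control cultures reached saturation at 30 °C; 1 = growth at the plate median or of vehicle wells; lower values mean less growth of the strain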
Test conditions: S. cerevisiae deletion strains, growth OD, locus YHR079C, strain IRE1 (second series), hits give low values
The campaign covered roughly 5,500 compounds. About 2,000 (36%) were called active. Inconclusive results (about 18%) are left out. The list shows a part of the results.
Give bare numbers.

Some solved entries appear below for comparison.
{"columns": ["Compound", "Result"],
 "data": [
  ["Cc1ccc(C(C)C)c(O)c1C(=O)O", 0.936],
  ["NC[C@H]1O[C@H](O[C@H]2[C@H](O)[C@@H](O[C@H]3O[C@H](CO)[C@@H](O)[C@H](N)[C@H]3O)[C@H](N)C[C@@H]2N)[C@H](N)[C@@H](O)[C@@H]1O", 0.974],
  ["CC1(C)[C@@H]2CC[C@@]1(C)C(=O)C2", 0.997],
  ["CC1(C)C(=O)CC[C@@]2(C)C1C[C@@H](O)[C@@]1(C)C3=CC(=O)O[C@@H](c4ccoc4)[C@]3(C)CCC21 (stereo partly specified)", 0.998],
  ["CCOC(=O)CC(SP(=S)(OC)OC)C(=O)OCC (stereo unspecified)", 1.01]
]}

Continue with the next compound.
Param item = NCC(O)CC(=O)O (stereo unspecified) ; retrieve measured normalized growth.
1
